Target: human PAR-2 (hPAR-2) receptor (Homo sapiens, UniProt P55085)
Construct: endogenous in cells
Sequence (P55085 26-397): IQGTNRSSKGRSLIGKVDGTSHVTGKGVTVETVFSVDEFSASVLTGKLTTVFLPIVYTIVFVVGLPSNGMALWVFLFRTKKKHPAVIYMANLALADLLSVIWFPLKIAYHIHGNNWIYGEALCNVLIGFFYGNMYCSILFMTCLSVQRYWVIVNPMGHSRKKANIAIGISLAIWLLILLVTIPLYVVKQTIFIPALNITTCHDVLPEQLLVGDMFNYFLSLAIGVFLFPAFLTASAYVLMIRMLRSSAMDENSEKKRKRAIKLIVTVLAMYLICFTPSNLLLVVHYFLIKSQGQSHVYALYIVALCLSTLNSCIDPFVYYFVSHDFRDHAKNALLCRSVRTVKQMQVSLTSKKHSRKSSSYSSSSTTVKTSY
Experiment: In vitro human PAR-2 functional antagonist activity using calcium assays
Conditions: hPAR-2 endogenously expressed in HEK-293 cells; stimulated by 2-Furoyl-LIGRLO-NH2 peptide; Fluo4AM intracellular calcium, FLIPR Tetra
EXPERIMENTAL_ENDPOINT: IC50

Use these answered entries as a reference point.
# MOLECULE, EXPERIMENTAL_ENDPOINT, RESULT
records = [
    ("Cc1cc(N2CCN(C(=O)c3cnc4c(n3)C(C)(C)CN4c3ccc(Cl)c(F)c3)C(C)(C)C2)nc(C)c1C(=O)O", "IC50", "< 500 nM"),
    ("CC1(C)CN(c2ccc(Cl)c(F)c2)c2ccc(C(=O)N3C[C@@H]4[C@@H](CC(=O)O)[C@@H]4C3)nc21", "IC50", "< 500 nM"),
    ("CCC1(CC)CN(c2ccc(Cl)c(F)c2)c2ccc(C(=O)N3CCN(c4ccc(CC(=O)O)cn4)CC3(C)C)nc21", "IC50", "< 500 nM"),
]

Would you mind giving IC50 for every molecule in the list below?
1. Cc1cc(N2CCN(C(=O)c3ccc4c(n3)C(C)(C)CN4c3ccc(F)c(F)c3)C(C)(C)C2)nc(C)c1C(=O)O
2. CC1(C)CN(c2ccc(CC(=O)O)cn2)CCN1C(=O)c1cnc2c(n1)C1(CCCC1)CN2c1ccc(Cl)c(F)c1
3. CC1(C)CN(c2ccc(CC(=O)O)cn2)CCN1C(=O)c1ccc2c(n1)C1(CCC1)CN2c1ccc(Cl)c(F)c1
4. CC1(C)CN(C(=O)c2ccc3c(n2)C2(CCCC2)CN3c2ccc(Cl)c(F)c2)CCC1C(=O)O (stereo not drawn)
5. C[C@H](CC(=O)O)N(C)C(=O)c1ccc2c(n1)C(C)(C)CN2c1ccc(Cl)c(F)c1
6. CC1(C)CN(CCc2ccc(F)cc2)c2ncc(C(=O)N3CCN(c4ccc(CC(=O)O)cn4)CC3(C)C)nc21

< 500 nM
< 500 nM
< 500 nM
500 to 10000 nM
500 to 10000 nM
500 to 10000 nM

----------
Target: human PAR-2 (hPAR-2) receptor (Homo sapiens)
Construct: endogenous in cells
Assay: In vitro human PAR-2 functional antagonist activity using calcium assays
Details: hPAR-2 endogenously expressed in HEK-293 cells; stimulated by 2-Furoyl-LIGRLO-NH2 peptide; Fluo4AM intracellular calcium, FLIPR Tetra
Counter-ions that a name gives are not always drawn.
EXPERIMENTAL_ENDPOINT: IC50

Use these answered entries as a reference point.
# COMPOUND, RESULT
data = [
    ("Cc1cc(N2CCN(C(=O)c3ccc4c(n3)OC(C)(C)CN(c3ccc(Cl)c(F)c3)C4)C(C)(C)C2)nc(C)c1C(=O)O", "> 10000 nM"),
    ("CCN1CCN(C(=O)c2ccc3c(n2)C(C)(C)CN3c2ccc(Cl)c(F)c2)C(C)(C)C1 [Example 23, hydrochloride]", "500 to 10000 nM"),
    ("CC1(C)C(=O)NCCN1C(=O)c1ccc2c(n1)C1(CCOCC1)CN2c1ccc(Cl)c(F)c1", "< 500 nM"),
    ("CC1(C)CN(C2CCC(F)(F)CC2)c2ccc(C(=O)N3CCN(c4ccc(CC(=O)O)cn4)CC3(C)C)nc21", "< 500 nM"),
    ("CC1(C)C(=O)NCCN1C(=O)c1ccc2c(n1)C1(CCCC1)CN2c1ccccc1Cl", "500 to 10000 nM"),
]

Would you mind giving IC50 for every compound in the list below?
1. CC1(C)CN(c2ccc(Cl)c(F)c2)c2ccc(C(=O)N3CCN(c4ncc(C(=O)O)cn4)CC3(C)C)nc21 [Example 41, hydrochloride]
2. Cc1ccc(N2CCN(C(=O)c3ccc4c(n3)C(C)(C)CN4c3ccc(Cl)c(F)c3)C(C)(C)C2)nc1C(=O)O
3. Cc1nc(N2CCN(C(=O)c3ccc4c(n3)C(C)(C)CN4c3ccc(Cl)c(F)c3)C(C)(C)C2)sc1CC(=O)O
4. CC(C)(C)OC(=O)N1CCN(C(=O)c2ccc3c(n2)C(C)(C)CN3c2ccc(Cl)c(F)c2)C(C)(C)C1
5. Cc1cc(N2CCN(C(=O)c3ccc4c(n3)C(C)(C)CN4C3CCC(C(N)=O)CC3)C(C)(C)C2)nc(C)c1C(=O)O (centres unmarked)
6. CCC1(C)CN(c2ccc(Cl)c(F)c2)c2ccc(C(=O)NC3(C(N)=O)CC3)nc21 (centres unmarked)

["< 500 nM", "< 500 nM", "< 500 nM", "< 500 nM", "500 to 10000 nM", "500 to 10000 nM"]
